target: Cytochrome P450 2C19 (Homo sapiens)
Sequence (P33261 whole entry): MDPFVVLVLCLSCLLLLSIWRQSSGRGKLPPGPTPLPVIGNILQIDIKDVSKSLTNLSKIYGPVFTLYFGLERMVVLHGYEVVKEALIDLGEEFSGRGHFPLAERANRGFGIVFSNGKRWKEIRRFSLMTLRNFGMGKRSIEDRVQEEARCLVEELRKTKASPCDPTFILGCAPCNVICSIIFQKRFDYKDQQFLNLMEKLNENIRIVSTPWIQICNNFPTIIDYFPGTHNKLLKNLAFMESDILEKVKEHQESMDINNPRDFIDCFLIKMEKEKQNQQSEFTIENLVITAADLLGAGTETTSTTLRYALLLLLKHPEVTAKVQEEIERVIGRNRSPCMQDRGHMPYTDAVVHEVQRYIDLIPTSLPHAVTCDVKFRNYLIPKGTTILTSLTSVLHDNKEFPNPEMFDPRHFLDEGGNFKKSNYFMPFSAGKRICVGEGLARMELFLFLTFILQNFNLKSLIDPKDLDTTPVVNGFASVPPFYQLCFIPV
pIC50: −log10 of the molar value.

RECORD SMILES	pIC50
COc1nc(-c2cc(-c3cnn(C)c3)cnc2N)cc2c1C(=O)N(CC(F)(F)F)CC2	< 4.30

* * *

target: Tyrosine-protein kinase Lck (Homo sapiens)
Sequence (P06239 whole entry): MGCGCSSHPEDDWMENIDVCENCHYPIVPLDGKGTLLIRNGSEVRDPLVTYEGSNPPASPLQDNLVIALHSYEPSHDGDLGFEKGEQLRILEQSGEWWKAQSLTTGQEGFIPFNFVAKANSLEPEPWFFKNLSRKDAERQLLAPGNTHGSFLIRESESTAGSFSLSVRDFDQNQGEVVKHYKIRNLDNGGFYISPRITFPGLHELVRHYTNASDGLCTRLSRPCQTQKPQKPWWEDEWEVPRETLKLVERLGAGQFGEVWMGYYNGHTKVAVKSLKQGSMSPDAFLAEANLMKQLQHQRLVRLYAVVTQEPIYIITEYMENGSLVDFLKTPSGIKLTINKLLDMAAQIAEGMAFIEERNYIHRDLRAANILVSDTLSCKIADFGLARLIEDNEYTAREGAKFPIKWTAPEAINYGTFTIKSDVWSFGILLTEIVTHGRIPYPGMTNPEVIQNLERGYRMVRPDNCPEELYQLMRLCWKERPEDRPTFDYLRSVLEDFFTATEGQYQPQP
QUANTITY NAME: IC50 (µM)

RECORD SMILES	QUANTITY NAME	EXPERIMENTAL VALUE
COc1nc(-c2cc(-c3cnn(C)c3)cnc2N)cc2c1C(=O)N(CC(F)(F)F)CC2	IC50	0.326

* * *

target: Cytochrome P450 2C9 (Homo sapiens)
Sequence (P11712 whole entry): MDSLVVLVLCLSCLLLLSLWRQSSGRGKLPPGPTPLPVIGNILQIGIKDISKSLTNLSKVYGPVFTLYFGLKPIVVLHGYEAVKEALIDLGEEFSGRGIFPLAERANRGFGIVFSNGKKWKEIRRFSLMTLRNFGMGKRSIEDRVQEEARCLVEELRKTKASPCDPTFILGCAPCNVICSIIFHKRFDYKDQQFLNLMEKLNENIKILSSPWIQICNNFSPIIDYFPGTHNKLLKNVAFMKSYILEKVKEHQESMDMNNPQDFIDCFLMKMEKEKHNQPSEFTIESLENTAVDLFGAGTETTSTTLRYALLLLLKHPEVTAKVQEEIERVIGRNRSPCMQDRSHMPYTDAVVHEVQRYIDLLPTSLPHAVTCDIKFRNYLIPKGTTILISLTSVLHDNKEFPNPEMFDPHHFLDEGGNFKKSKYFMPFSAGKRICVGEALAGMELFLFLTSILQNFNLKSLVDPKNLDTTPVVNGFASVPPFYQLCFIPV
pIC50: −log10 of the molar value.

RECORD SMILES	pIC50
COc1nc(-c2cc(-c3cnn(C)c3)cnc2N)cc2c1C(=O)N(CC(F)(F)F)CC2	< 4.30

Ref: ChEMBL document CHEMBL6109120
